// reported protein stability index per item
B1: C8orf76 (parent)
chain: YCAKLCEPQWFYEETESSDDVEVL

variants of: B1; assay: protein stability index of a GFP-peptide fusion (GPS, HEK-293T) (PSI 1-6); higher = more stable; conditions: c terminus: a fixed tail appended;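 also: lentivirally expressed fusions sorted by FACS into six bins by GFP to DsRed ratio, PSI derived from sequencing read proportions per bin multiplied by bin number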
Please state the value as a number alone, without comment.

protein stability index measured on V23D = 2.41

protein stability index measured on D19H = 2.25

protein stability index measured on T15W = 1.81
